testDetails: Pharmacokinetics of compounds in rats (oral)
Format: in vivo, SD rats
experimentalParameters: male SD rats, 100 mg/kg
quantityKind: AUC (ng·h/mL)

* Oc1cc(-c2ncc3c(N4C[C@H]5CC[C@@H](C4)N5)nc(OCC45CCCN4C(c4ccc6c(c4)C4CCC6O4)CC5)nc3c2F)c2c(F)c(F)ccc2c1 (stereo partly drawn) [Example 153] | 458

a = Oc1cc(-c2ncc3c(N4C[C@H]5CC[C@@H](C4)N5)nc(OCC45CCCN4C(c4ccc6c(c4)OC(F)(F)O6)CC5)nc3c2F)c2c(F)c(F)ccc2c1 (stereo partly drawn) [Example 140]
b = C#Cc1c(F)ccc2cc(O)cc(-c3ncc4c(N5CC6CCC(C5)N6)nc(OC[C@@]56CCCN5C[C@H](F)C6)nc4c3F)c12 [MRTX1133, reference compound]
Query: Parameter check: reported AUC is higher for which label, a or b ? In your reply, give the label of the chosen option.
Result: a
(a: 444 ng·h/mL, b: 70 ng·h/mL)
